// provenance: the supplement of paper PMC9732359

Test: protein stability index of a GFP-peptide fusion (yeast GPS) (PSI 1-4); higher = more stable; sorted into four equal gates, so the index is relative within each strain
Conditions: san1∆
Outcome: YES for protein stability index of at least 3; NO for anything lower.

-- ask Has ELMAMNITPRLYTDRSR [RPB2] a recorded protein stability index greater than or equal to 3?
-- reply NO

-- ask Has QIVSYCSNNKNSIKNVP [SSN2] a recorded protein stability index greater than or equal to 3?
-- reply NO

-- ask Has LELIGVLSINPDMYERK [MED7] a recorded protein stability index greater than or equal to 3?
-- reply NO

-- ask Has PFSFSSATSTTEQTKSK [YLR335W/NUP2] a recorded protein stability index greater than or equal to 3?
-- reply NO

-- ask Has DIEIVRVNKNAPAVELH [FAS2] a recorded protein stability index greater than or equal to 3?
-- reply YES

-- ask Has GWWGHMGGPKQKGITSY [QCR8] a recorded protein stability index greater than or equal to 3?
-- reply NO

-- ask Has KLELINRYAYVLSSLMF [LRP1] a recorded protein stability index greater than or equal to 3?
-- reply NO

-- ask Has EEPAKEEAPAPTPAASA [FAS2] a recorded protein stability index greater than or equal to 3?
-- reply NO

-- ask Has AYEEEEENEDNDGNNRT [NUT1] a recorded protein stability index greater than or equal to 3?
-- reply YES

-- ask Has NRKIYQFTLYDRELNEV [SMC3] a recorded protein stability index greater than or equal to 3?
-- reply NO

-- ask Has KIRRAARDLLTRDEKDP [RPS9A] a recorded protein stability index greater than or equal to 3?
-- reply NO

* * *

Exercise: state measured protein stability index for each of the sequences provided.
Assay: protein stability index of a GFP-peptide fusion (yeast GPS) (PSI 1-4); higher = more stable; sorted into four equal gates, so the index is relative within each strain
Conditions: pdr5∆
# output: bare number, no unit

-- ask Reported protein stability index, sequence DADKLSFNCENFFQAPQ [YML031W/NDC1] : ____
-- reply 2.15

-- ask Reported protein stability index, sequence QILTVDPKTSLRIVKPT [RPC82] : ____
-- reply 2.99

-- ask Reported protein stability index, sequence HKTFLVANVKDLETLTM [RPL32] : ____
-- reply 3.39

-- ask Reported protein stability index, sequence LWALLNFLLPDIFGDSE [ISW2] : ____
-- reply 1.98

-- ask Reported protein stability index, sequence KNFENGPKKNVFYAPNV [RPC34] : ____
-- reply 2.94

-- ask Reported protein stability index, sequence SKNSKLSIICVGGHNVT [SIR3] : ____
-- reply 1.57

-- ask Reported protein stability index, sequence HPSIYTQVFNILLQHKE [POP1] : ____
-- reply 2.6

-- ask Reported protein stability index, sequence LPNEMSQNDGFVIIRGS [RPO31] : ____
-- reply 3.13

-- ask Reported protein stability index, sequence ATQKESLEMVPKDTSAA [RGR1] : ____
-- reply 3.25

-- ask Reported protein stability index, sequence DMVMATVKKGKPELRKK [RPL23A] : ____
-- reply 3.35

-- ask Reported protein stability index, sequence TNFNEITNTDETITTKR [SWP82] : ____
-- reply 3.25

-- ask Reported protein stability index, sequence TKVNNQLIKVAVHNGGR [RPL9A] : ____
-- reply 1.52

-- ask Reported protein stability index, sequence QLSLDASKTNLRLTDVT [GAL11] : ____
-- reply 3.23

-- ask Reported protein stability index, sequence TVPELEIPTQIYRTTRQ [ARP9] : ____
-- reply 2.8

-- ask Reported protein stability index, sequence INFERIDEVFSWYLNTF [GRR1] : ____
-- reply 1.91

-- ask Reported protein stability index, sequence FGTGQSTFGFNNSAPNN [YJL041W/NSP1] : ____
-- reply 3.29

-- ask Reported protein stability index, sequence ERVMKNKVEENLEGLYL [RPT2] : ____
-- reply 3.28

-- ask Reported protein stability index, sequence IASTEKPENKTDKVSLS [SIR4] : ____
-- reply 3.1

-- ask Reported protein stability index, sequence AHTPMLQMYSKIRRHPN [FAS1] : ____
-- reply 3.03

-- ask Reported protein stability index, sequence KNSSQLLNEWSHNVDEL [RPN5] : ____
-- reply 2.81

-- ask Reported protein stability index, sequence LELGSCFSQENIEEMAR [SIN4] : ____
-- reply 2.21

-- ask Reported protein stability index, sequence PSYSPTSPSYSPTSPSY [RPO21] : ____
-- reply 2.88

-- ask Reported protein stability index, sequence LHDTQIEGKLHMATALQ [RPN10] : ____
-- reply 2.37

-- ask Reported protein stability index, sequence EFCDEPSVGVKTMKTFV [RPB5] : ____
-- reply 3.56

-- ask Reported protein stability index, sequence LIIDDPSKGQSLSKISQ [RPP1] : ____
-- reply 2.81

-- ask Reported protein stability index, sequence DSSGVNDLHHSEKKYAE [RPN3] : ____
-- reply 3.24

-- ask Reported protein stability index, sequence SRTFDKYSKLVDNVTLE [SRP72] : ____
-- reply 3.36

-- ask Reported protein stability index, sequence TRLVQLREFRITHNTNI [GRR1] : ____
-- reply 1.16

-- ask Reported protein stability index, sequence YDNGQVFPSSILDITDE [RPP0] : ____
-- reply 1.79

-- ask Reported protein stability index, sequence FEFQYLTIGVKFFMKHG [SRB5] : ____
-- reply 1.34

-- ask Reported protein stability index, sequence EQSLEVFIFPTSNWEIY [SRB8] : ____
-- reply 2.2

-- ask Reported protein stability index, sequence MNIKPVQKQTRAGQRTR [RPS2] : ____
-- reply 2.81

-- ask Reported protein stability index, sequence SSQVREHVKELLKYSNE [RPL1A] : ____
-- reply 2.23

-- ask Reported protein stability index, sequence IDTSKNLENMSIQDTST [YCG1] : ____
-- reply 2.94

-- ask Reported protein stability index, sequence NAKIIDAEVAQFLEQGL [SRP68] : ____
-- reply 2.59

-- ask Reported protein stability index, sequence ERKQIHEFKLIVGKKIQ [GRR1] : ____
-- reply 2.58

-- ask Reported protein stability index, sequence RGDSTETSSFGSMFSGD [RRI1] : ____
-- reply 3.27
